These data points were gathered from paper PMC2807882.

biological target: Xlp53 (Xenopus laevis, UniProt Q7T1D0 1-362); test: fluorescence anisotropy competition titration; 25 mM sodium phosphate (purification buffer pH 7.2), 225 mM NaCl, 10% v/v glycerol, 5 mM DTT, 0.2 mg/mL BSA, 22 C; conditions: protein: recombinant; tags: N-terminal 6xHis-lipoyl-TEV tag, cleaved; chain copies: 4
Sequence (Q7T1D0 entry or part of it): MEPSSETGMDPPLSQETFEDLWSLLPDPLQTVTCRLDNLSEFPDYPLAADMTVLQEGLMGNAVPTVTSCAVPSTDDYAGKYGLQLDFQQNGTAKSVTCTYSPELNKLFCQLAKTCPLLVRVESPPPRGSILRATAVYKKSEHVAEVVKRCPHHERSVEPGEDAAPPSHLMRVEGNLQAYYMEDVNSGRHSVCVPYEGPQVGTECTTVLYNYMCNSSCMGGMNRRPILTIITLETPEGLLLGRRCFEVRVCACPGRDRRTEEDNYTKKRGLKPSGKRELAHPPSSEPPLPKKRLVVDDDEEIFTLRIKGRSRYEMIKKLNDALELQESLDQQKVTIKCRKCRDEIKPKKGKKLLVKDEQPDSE
PARAMETER: pKd
Numbers only, as −log10 of the molar value.

So what does the record say about pKd for Ref competitor (dsDNA) DNA 1: CGCGGACATGTCCGGACATGTCCCGC DNA 2: GCGGGACATGTCCGGACATGTCCGCG ? 7.08
